Listed compounds paired with reported IC50
# Tested on: HBeAg
# assay_protocol: In vitro inhibition of HBV: HBeAg in HepG2.2.15 cells by ELISA
# Assay type: cell-based
# setup_conditions: Hepatitis B virus, HepG2.2.15, read-out: IC50 (μM) (HBeAg)
# Protocol: A tube of frozen HepG2.2.15 cells taken from a liquid nitrogen tank was quickly placed into a water bath at 42° C. and shaken to thaw. […] The effect of a compound on HBV surface antigen s and antigen e in the cell culture was detected using a screening concentration lower than the half toxic concentration of the compound. […] The intracellular and extracellular expressions of e antigen and surface antigen at day 3, day 6 and day 9 were determined by ELISA. […]

| compound | relation_operator | IC50, µM |
| --- | --- | --- |
| CONc1ccn([C@@H]2O[C@@](CO)(N=[N+]=[N-])C(O)C2F)c(=O)n1 (stereo partly shown) | > | 1 |
| [N-]=[N+]=N[C@]1(CO)O[C@@H](n2ccc(NCC(=O)O)nc2=O)C(F)C1O (stereo partly shown) | = | 16.7 |
| [N-]=[N+]=N[C@]1(CO)O[C@@H](n2ccc(NO)nc2=O)C(F)C1O (stereo partly shown) | = | 0.11 |
| COC(=O)[C@@H](Cc1cc2ccccc2[nH]1)Nc1ccn([C@@H]2O[C@@](CO)(N=[N+]=[N-])C(O)C2F)c(=O)n1 (stereo partly shown) | = | 0.32 |
| CN(C)c1ccn([C@@H]2O[C@@](CO)(N=[N+]=[N-])C(O)C2F)c(=O)n1 (stereo partly shown) | = | 15.5 |
| CCONc1ccn([C@@H]2O[C@@](CO)(N=[N+]=[N-])C(O)C2F)c(=O)n1 (stereo partly shown) | > | 1 |
| COC(=O)C[C@H](Nc1ccn([C@@H]2O[C@@](CO)(N=[N+]=[N-])C(O)C2F)c(=O)n1)C(=O)OC (stereo partly shown) | = | 12.8 |
